# System: SNB-78 CNS
# Experiment Description: NCI tumour cell line growth inhibition, 48 h
Measured Endpoint: TGI

• COC(=O)/C(=N\NC(N)=S)C(C#N)c1ccccc1 (centres undefined) = > 100 µM
• Cc1ccc(NC(=O)CC(=O)N2N=C(N(CCC#N)c3cccc(C)c3)CC2c2ccccc2)cc1 (centres undefined) = > 100 µM
• CCCCCCCCCCCCCCCCOC(=O)c1cc(O)cc(C(=O)OCCCCCCCCCCCCCCCC)c1 = > 100 µM
• O=C1C=CC2(C=C1)C[C@H](NC(=O)C(F)(F)F)C(=O)O2 = > 100 µM
• C[C@@H]1C[C@]2(C[C@@H](C)C3[C@@H](CC4(C)[C@@H]5CCC6C(C)(C)OC(=O)C=C[C@]67C[C@@]5(CC[C@]34C)OO7)O2)OC1=O (some centres undefined) = > 100 µM
• COC(OC)c1cc2c(cc1C(=O)[C@@]13CCC[C@@H]1NC(=O)O3)OCO2 = > 100 µM
• CCOc1ccc(C(CN2CCOCC2)C(C)=O)cc1OC (centres undefined) = 66.8 µM
• CCOC(=O)C1COc2cc(-c3cc(=O)c4ccccc4o3)ccc2O1 (centres undefined) = > 100 µM
• CC(=O)O[C@H]1CC[C@@]2(C)[C@H](CC[C@@H]3[C@@H]2CC[C@]2(C)[C@@H](c4ccc(=O)oc4)C[C@H]4O[C@]342)C1 = 4.8 µM

====

# Tested on: UACC-257 melanoma
# Experiment Description: NCI tumour cell line growth inhibition, 48 h
Measured Endpoint: TGI

• Oc1[nH]c2cc(Cl)ccc2c1/C=c1/ccc2c(c1)N=C(c1cc(F)cc(F)c1)N=2 = 19.2 µM
• O=C(/C=C/c1cccs1)c1ccccc1Cl = 34.2 µM
• CC1CC[C@]2(C(=O)O)CCC3(C)C(=CCC4[C@@]5(C)CC[C@H](OS(=O)(=O)c6ccccc6)C(C)(C)C5CC[C@]43C)[C@@H]2[C@H]1C (stereo partly drawn) = > 100 µM
• CCSC(SCC)=C1C(=O)N(c2ccccc2)N=C1C = 18.5 µM
• COc1cc2cc3c4c(cc(OC)c(OC)c4c2cc1OC)CCN3C(=O)CCC(=O)NCCCN(C)C = > 100 µM
• Oc1ccc(Cl)cc1Cc1cc(Cl)ccc1O = 5.39 µM
• Cc1nc2ccc(Cl)cc2c2c1CCN2c1ccccc1 = 29.1 µM
• CCOC(=O)C1CCCCN1CCc1c[nH]c2ccccc12 (stereo not drawn) = > 100 µM
• N#Cc1nc(C#N)n(C(=O)c2ccccc2)c1NC(=O)c1ccccc1 = > 100 µM
• CCOC(=O)c1cnccc1CC1(C#N)c2ccccc2C=CN1C(=O)c1ccccc1 (stereo not drawn) = > 100 µM
• Cc1csc(NC(=NCCN2CCOCC2)Nc2nc(C)cs2)n1 = > 100 µM
• O=C(c1ccc(Cl)cc1)C1OC12C(=O)Nc1ccccc12 (stereo not drawn) = 27.8 µM
• S=c1nc(-c2ccnc(-c3nc(=S)[nH][nH]3)c2)[nH][nH]1 = > 100 µM
• COc1cc2c(c(OC)c1OC)-c1ccc(SC)c(=O)cc1[C@@H](NC(=O)c1ccc(Cl)cc1)CC2 = > 100 µM
• CC(=O)CC(=O)CCC(=O)O = > 100 µM
• O=C(NCCCCCCCNC(=O)OCc1ccc2c(Cl)cc(Cl)c(O)c2n1)OCc1ccc2c(Cl)cc(Cl)c(O)c2n1 = 2.6 µM
• Cc1c(C(=O)CSc2nc3ccccc3[nH]2)c(=O)n(-c2ccccc2)n1C = > 100 µM
• O=c1cc(NCc2ccncc2)[nH]c(=O)[nH]1 = > 100 µM
• CCOC(=O)C(=O)C(=O)NN(C)C1=NCCN1 = > 100 µM
• Cc1nc(-n2nc(-c3ccccc3)cc2-c2ccccc2)sc1C(/C=C/c1ccc([N+](=O)[O-])cc1)=N/NC(=O)c1ccncc1 = > 100 µM
• CC(=O)N(Cc1ccccc1)c1ccccc1I(=O)=O = > 100 µM
• Cc1ccc(S(=O)(=O)N(CC(O)COc2ccccc2)c2ccc(F)cc2F)cc1 (stereo not drawn) = 33.3 µM
• COc1cnc2cc(C(=O)O)c3ccccc3c2c1 = > 100 µM
• C[N+](C)(C)CC1CCCC(C[N+](C)(C)C)C1O (stereo not drawn) = > 100 µM
• Cc1cc(Cl)ccc1Nc1nc(C(F)(F)F)ccc1C(=O)N1CCN(c2cccc(Cl)c2)CC1 = > 100 µM
• COC(=O)C1=C(O)C(C(=O)OC)[C@]2(O)[C@H](C(=O)OC)[C@H]1C[C@@H](c1ccc([N+](=O)[O-])cc1)[C@H]2C(=O)OC (stereo partly drawn) = > 100 µM
• CC/C=C\C/C=C\C[C@H](O)C/C=C1/C(=O)C=C[C@@H]1C/C=C\CCCC(=O)OC = 4.32 µM
• COc1ccc(CCN=C2CCC(C(=O)NCCc3ccc(OC)c(OC)c3)N2)cc1OC (stereo not drawn) = > 100 µM

====

Read-out record for COLO 205 colon: GI50
Measured Endpoint: GI50

• COc1cc([N+](=O)[O-])c2ncccc2c1[N+](=O)[O-] = 10.1 µM
• Nc1[nH]c(=O)ncc1CO = > 100 µM
• OCNCCNc1nc2ccccc2c2[nH]c3ccccc3c12 = 1.76 µM
• Oc1ccc(Cl)cc1Cc1cc(Cl)ccc1O = 13.7 µM
• Cc1ccc(C(C)C)cc1NC(=O)Nc1ccc([N+](=O)[O-])cc1 = 1.67 µM
• CC1(C)OC2C(COS(N)(=O)=O)SC(n3cnc4cncnc43)C2O1 (stereo unspecified) = > 100 µM

====

# Test system: PC-3 prostate
# Experiment Description: NCI tumour cell line growth inhibition, 48 h
Attribute: GI50
Measured Endpoint: GI50

- O=C1C=CC(=O)c2c(O)c(N3CCN(CCOCCO)CC3)c(Cl)c(O)c21: 1.67 µM [middle of 4 runs]
- Nc1ccc(S(=O)(=O)Nc2cnc3c(Cl)cccc3n2)cc1: > 63.9 µM
- CN1CCN(c2nc(-c3ccncc3)nc3sc4c(c23)CCCCCC4)CC1: 4.71 µM
- Cc1cc(Cl)ccc1Nc1nc(C(F)(F)F)ccc1C(=O)N1CCN(c2cccc(Cl)c2)CC1: 7.56 µM
- Nc1[nH]c(=O)ncc1CO: > 100 µM
- Cc1cc(Cl)ccc1NS(=O)(=O)c1ccc(-c2cnc(C3CC3)o2)cc1: 0.254 µM
- CC1(C)CC[C@]2(C(N)=O)CC[C@]3(C)C(=CC[C@@H]4[C@@]5(C)C/C(=C/c6ccncc6)C(=O)C(C)(C)[C@@H]5CC[C@]43C)[C@@H]2C1: 1.37 µM

====

# System: TK-10 renal
# Experiment Description: NCI tumour cell line growth inhibition, 48 h
Measured Endpoint: TGI

* C/C=C1\C(=O)OC2CCN3CCC(COC(=O)C(C)(O)C(C)C1O)C23 (stereo not drawn) | > 100 µM
* CSc1ccc(C(=O)C(=O)c2ccc(SC)s2)s1 | > 10 µM
* O=C1c2ccccc2-c2[nH]c3cn[nH]c(=O)c3c21 | > 100 µM
* O=C(NCCCCCCCNC(=O)OCc1ccc2c(Cl)cc(Cl)c(O)c2n1)OCc1ccc2c(Cl)cc(Cl)c(O)c2n1 | 2.73 µM
* Nc1ccc2c(c1)c(N)nn2C(=O)Nc1ccc(Cc2ccccc2)cc1 | 46 µM
* COc1ccc2nc3ccccc3c(NCCCCN(C)CCCl)c2c1 | > 31.9 µM
* O=C(Nc1ccccc1C(=O)N/N=C(\c1ccccc1)c1ccccn1)c1ccc(F)cc1 | > 100 µM
* O=C1C=CC(=O)c2c(O)c(N3CCN(CCOCCO)CC3)c(Cl)c(O)c21 | 1.56 µM [middle of 4 runs]

====

Attribute: GI50
# Tested on: BT-549 breast
Measured Endpoint: GI50

• Nc1ccc2c(c1)c(N)nn2C(=O)Nc1ccc(Cc2ccccc2)cc1 = 14.6 µM
• CC(=O)N(Cc1ccccc1)c1ccccc1I(=O)=O = > 100 µM
• O=C(Cc1csc2nc(-c3ccc(Br)cc3)cn12)N/N=C/c1ccc(O)cc1 = 13.4 µM
• COc1cc(NC(=O)Nc2cnc(Nc3ccc(N4CCOCC4)cc3)nc2Oc2cccc(OC)c2)cc(OC)c1 = 1.49 µM
• Nc1[nH]c(=O)ncc1CO = > 100 µM
• CC1=C(C(=O)Nc2ccc(Cl)c(Cl)c2)C(c2ccccc2O)NC(=O)N1 (stereo not given) = 15.3 µM
• O=C(Nc1ccccc1C(=O)N/N=C(\c1ccccc1)c1ccccn1)c1ccc(F)cc1 = 0.436 µM
• Cc1cc(Cl)ccc1NS(=O)(=O)c1ccc(-c2cnc(C3CC3)o2)cc1 = 1.32 µM
• CC(=O)Oc1ccc(/C=N/NC(N)=S)nc1 = 3.4 µM
• Oc1[nH]c2cc(Cl)ccc2c1/C=c1/ccc2c(c1)N=C(c1cc(F)cc(F)c1)N=2 = 2.1 µM
